Here the recorded Kd is given for each entry.
Target: T1, GFP-9S library array, motif 4 ND N98G;D124V (synthetic construct, N98G;D124V)
T1 chain: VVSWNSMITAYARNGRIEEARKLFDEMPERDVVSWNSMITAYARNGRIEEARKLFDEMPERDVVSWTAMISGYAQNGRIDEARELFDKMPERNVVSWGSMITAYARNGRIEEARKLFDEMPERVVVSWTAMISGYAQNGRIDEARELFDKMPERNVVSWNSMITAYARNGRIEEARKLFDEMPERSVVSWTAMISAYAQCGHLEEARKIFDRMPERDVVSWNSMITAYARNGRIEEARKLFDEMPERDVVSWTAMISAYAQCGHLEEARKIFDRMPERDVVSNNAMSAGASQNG
Assay: high-throughput RNA pulldown from lysate on Ni-NTA beads; HRP: 50 mM Tris pH 8, 150 mM NaCl, 1 mM beta-mercaptoethanol, 50 ug/ml BSA, 3 ug/ml yeast RNA, 0.5% heparin; ITC and FP: Tris pH 8, 200 mM KCl, 5% glycerol; MST: 50 mM Tris pH 8, 200 mM NaCl, 1 mM DTT, BSA, heparin, 0.05% Tween 20
Conditions: tags: N-terminal His-eGFP; label: 5' IRDye 800CW
Reply with just the number (in nM).

{"columns": ["binder", "measured_parameter", "result_units", "readout_number"],
 "data": [
  ["AUUAUACGUGA (ssRNA) [IR-rpoA-U]", "Kd", "nM", 234]
]}

What value of Kd has been reported for the following binder? AUUAAACGUGA (ssRNA) [IR-rpoA-A]
313
